assayedTarget: PTBP1 RRM1 (human, UniProt P26599 55-147)
Sequence (P26599 55-147): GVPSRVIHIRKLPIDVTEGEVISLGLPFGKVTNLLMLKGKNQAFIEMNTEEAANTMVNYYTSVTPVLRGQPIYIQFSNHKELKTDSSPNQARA
experimentDescription: fluorescence polarization; tRNA background; 0.5 nM RNA; FP: 1x PBS pH 7.4, 1% DMSO, tRNA background, temperature not stated; EMSA: 10 mM Hepes pH 7.3, 20 mM KCl, 1 mM MgCl2, 1 mM DTT, tRNA (10 ug/ml in Methods, 10 ug/uL in Fig S2 legend), room temperature, 1% TBE agarose
conditionLabel: protein: recombinant; tags: N-terminal His6 (pET28a); label: 3' FTSC (fluorescein-5-thiosemicarbazide); single-stranded, designed as unstructured
quantity: pKd
// returns pKd (minus log10 of molar concentration), number only

# lookup: pKd of ACGCUUCUCUCAGGGAAAAACAUGC (ssRNA) [MCL1 3'UTR 25-mer RNA] 7.79
